Biological target: DNA repair nuclease/redox regulator APEX1 (Homo sapiens)
Test: qHTS Assay for Inhibitors of the Human Apurinic/apyrimidinic Endonuclease 1 (APE1); note: nearly all actives have a fitted effect of over 55% in size
Conditions: recombinant APE1, TAMRA/BHQ-2 abasic DNA cleavage fluorescence
Experimental: The apurinic/apyrimidinic endonuclease APE1 is the primary mammalian enzyme responsible for the removal of abasic (or AP) sites in DNA and functions centrally in the base excision DNA repair (BER) pathway. […] Three uL of enzyme solution (0.75 nM APE1 final concentration) was dispensed to 1536-well Greiner black solid bottom plates. […] The fluorescence intensity difference between the third and the first time points was used to compute reaction progress. […]
In all, about 350,000 compounds went through this assay and about 1,200 (0.34%) were called active. Roughly 3% stayed inconclusive and do not appear here. Calls come from the whole dose curve; as a rule, active = well fitted inhibition curve with a large enough effect; inconclusive = small, poorly fitted or top-dose-only effect; inactive = no such curve, though single readings can be large or run the other way. The sample holds actives, similar compounds and a random draw of the others, so the mix is not that of the screen.
Hi there, use one of these labels in your reply, thanks! active, inactive

### Prompt Entry `COC(=O)[C@@]1(Cc2ccccc2)[C@H]2c3cc(C(=O)N(C)C)n(CCSCCO)c3C[C@H]2CN1C(=O)c1ccccc1` : call = ?
### Response inactive

### Prompt Can you look up the reported call for `Cc1csc(-c2coc3cc(O[C@@H]4O[C@H](CO)[C@@H](O)[C@@H](O)[C@H]4O)ccc3c2=O)n1` for me?
### Response inactive

### Prompt Just curious, what result did C=C1C(=O)C23C(O)C1CCC2[C@]12COC3(O)C(O)C1C(C)(C)CC[C@H]2O (some centres undefined) get here?
### Response inactive

### Prompt Identify the outcome logged in this assay for the compound shown: `C=CC1=C(C(=O)O)N2C(=O)[C@@H](NC(=O)/C(=N\OCC(=O)O)c3csc(N)n3)[C@H]2SC1`
### Response active

### Prompt Would you mind telling me which call this test gave CC(C)C1=CC2=CC[C@@H]3[C@](C)(CO)CCC[C@]3(C)C2CC1 (some centres undefined) ?
### Response inactive

### Prompt Fill in: this test's call for `CC1=C2[C@@H](O)[C@H]([C@@H](C)C(=O)NCCC(C)C)CC[C@@]2(C)C=CC1=O` is ___
### Response inactive

### Prompt Could you kindly confirm the outcome this assay logged for Nc1ncn(C2OC(CO)C(O)C2O)c(=O)n1 (centres undefined) ?
### Response inactive

### Prompt Identify the outcome logged in this assay for the compound shown: C=C(C(C)=O)C(O)c1ccc([N+](=O)[O-])cc1 (centres undefined)
### Response inactive

### Prompt Given `Cc1ccc(NC(=O)O[C@@H]2C(=O)c3cc(Br)ccc3O[C@H]2c2ccc3c(c2)OCO3)cc1Br` , state the outcome it received in this test.
### Response inactive
